target: porcine α2δ-1b-6His (SEQ ID No 9) (Sus scrofa, UniProt A0A287BIN3); conditions: read-out: Ki, Flash plate, Mean (geometric); geometric mean of n = 2; [3H]gabapentin 10-13 nM
Sequence (A0A287BIN3 25-1109 limits assumed): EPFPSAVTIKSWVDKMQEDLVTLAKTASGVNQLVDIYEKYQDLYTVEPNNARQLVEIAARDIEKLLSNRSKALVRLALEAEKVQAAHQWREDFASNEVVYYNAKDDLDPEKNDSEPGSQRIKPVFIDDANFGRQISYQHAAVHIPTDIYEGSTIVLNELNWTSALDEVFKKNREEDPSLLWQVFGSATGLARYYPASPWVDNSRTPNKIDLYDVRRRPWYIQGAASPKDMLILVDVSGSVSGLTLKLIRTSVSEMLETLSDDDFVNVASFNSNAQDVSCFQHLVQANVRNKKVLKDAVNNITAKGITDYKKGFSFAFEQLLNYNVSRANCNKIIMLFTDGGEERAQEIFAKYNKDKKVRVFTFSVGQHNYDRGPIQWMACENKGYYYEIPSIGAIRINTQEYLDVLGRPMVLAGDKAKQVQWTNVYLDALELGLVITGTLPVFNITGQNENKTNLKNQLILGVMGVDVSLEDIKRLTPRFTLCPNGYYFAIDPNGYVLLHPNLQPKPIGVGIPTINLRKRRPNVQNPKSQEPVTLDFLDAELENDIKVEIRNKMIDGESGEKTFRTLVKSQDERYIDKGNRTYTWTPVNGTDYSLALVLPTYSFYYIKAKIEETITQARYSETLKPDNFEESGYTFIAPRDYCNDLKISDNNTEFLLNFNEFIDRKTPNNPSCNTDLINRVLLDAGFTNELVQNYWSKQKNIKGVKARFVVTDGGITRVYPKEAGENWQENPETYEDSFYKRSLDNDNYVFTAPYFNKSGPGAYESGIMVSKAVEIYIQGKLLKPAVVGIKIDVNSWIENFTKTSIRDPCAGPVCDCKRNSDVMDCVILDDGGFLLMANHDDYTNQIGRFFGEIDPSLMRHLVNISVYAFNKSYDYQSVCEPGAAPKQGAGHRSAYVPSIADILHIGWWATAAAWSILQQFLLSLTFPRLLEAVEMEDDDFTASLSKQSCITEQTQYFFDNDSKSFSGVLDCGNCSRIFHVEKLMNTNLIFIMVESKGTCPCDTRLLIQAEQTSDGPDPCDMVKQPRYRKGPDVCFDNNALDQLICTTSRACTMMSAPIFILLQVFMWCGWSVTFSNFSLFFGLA
pKi: −log10 of the molar value.
The entries below come with measured pKi values attached.
measurement label: pKi

INSERT INTO assay_data (molecule, study_target, measurement_label, value_measured) VALUES
  ('CC(C)C[C@@H](CN)CC(=O)O [(R-)-3-isobtyl GABA, (R−)-3-Isobutyl GABA]', 'porcine α2δ-1b-6His (SEQ ID No 9) (Sus scrofa, UniProt A0A287BIN3)', 'pKi', 6.74),
  ('CC(C)C[C@H](CN)CC(=O)O [(S+)-3-isobutyl GABA]', 'porcine α2δ-1b-6His (SEQ ID No 9) (Sus scrofa, UniProt A0A287BIN3)', 'pKi', 8.04);
